- Measured Target: Metabotropic glutamate receptor 5 (Rattus norvegicus, UniProt P31424)
- Sequence (P31424 whole entry): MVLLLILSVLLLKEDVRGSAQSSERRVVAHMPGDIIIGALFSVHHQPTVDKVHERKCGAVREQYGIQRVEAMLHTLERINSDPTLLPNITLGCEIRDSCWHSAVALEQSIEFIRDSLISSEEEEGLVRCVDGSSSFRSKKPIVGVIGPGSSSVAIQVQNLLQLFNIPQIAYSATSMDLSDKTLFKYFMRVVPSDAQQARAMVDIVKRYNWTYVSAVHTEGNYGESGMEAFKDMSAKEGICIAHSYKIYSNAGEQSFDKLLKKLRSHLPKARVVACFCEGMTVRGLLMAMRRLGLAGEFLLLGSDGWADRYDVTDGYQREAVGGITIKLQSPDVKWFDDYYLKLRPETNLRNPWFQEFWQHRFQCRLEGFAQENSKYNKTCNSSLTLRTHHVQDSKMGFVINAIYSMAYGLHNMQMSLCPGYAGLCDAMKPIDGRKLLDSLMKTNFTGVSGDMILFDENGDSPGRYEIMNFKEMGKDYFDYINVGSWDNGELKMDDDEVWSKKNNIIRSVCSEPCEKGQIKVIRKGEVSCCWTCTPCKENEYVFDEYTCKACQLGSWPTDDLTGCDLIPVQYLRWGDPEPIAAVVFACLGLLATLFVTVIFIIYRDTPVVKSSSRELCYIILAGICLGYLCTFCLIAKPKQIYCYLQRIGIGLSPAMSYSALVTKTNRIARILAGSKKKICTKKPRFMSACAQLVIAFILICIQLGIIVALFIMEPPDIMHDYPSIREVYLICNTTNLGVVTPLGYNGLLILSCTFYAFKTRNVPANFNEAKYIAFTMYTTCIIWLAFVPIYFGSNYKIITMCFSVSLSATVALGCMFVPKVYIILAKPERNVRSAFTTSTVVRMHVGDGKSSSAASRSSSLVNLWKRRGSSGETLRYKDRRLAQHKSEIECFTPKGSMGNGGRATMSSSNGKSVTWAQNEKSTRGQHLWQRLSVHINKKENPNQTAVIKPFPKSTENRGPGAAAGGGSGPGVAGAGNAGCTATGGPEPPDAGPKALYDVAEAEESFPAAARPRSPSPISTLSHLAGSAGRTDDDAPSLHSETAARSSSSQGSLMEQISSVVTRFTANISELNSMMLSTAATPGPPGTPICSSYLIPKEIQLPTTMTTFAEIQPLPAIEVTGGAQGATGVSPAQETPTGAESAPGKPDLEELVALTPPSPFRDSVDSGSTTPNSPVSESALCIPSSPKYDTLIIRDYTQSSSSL
- Assay Overview: Negative allosteric modulator activity at rat mGlu5 receptor expressed in HEK293 cells assessed as effect on quisqualate-induced inositol phosphate accumulation incubated for 30 mins by florescence assay
- Format: functional, cell-based
- Protocol Conditions: read-out: IC50
pIC50: −log10 of the molar value.
Property Measured: pIC50

• COc1cc(C#Cc2ccccn2)ccc1NC(=O)c1ccccc1Cl = 7.62

###

- Measured Target: Metabotropic glutamate receptor 4 (Rattus norvegicus)
- Sequence (P31423 whole entry): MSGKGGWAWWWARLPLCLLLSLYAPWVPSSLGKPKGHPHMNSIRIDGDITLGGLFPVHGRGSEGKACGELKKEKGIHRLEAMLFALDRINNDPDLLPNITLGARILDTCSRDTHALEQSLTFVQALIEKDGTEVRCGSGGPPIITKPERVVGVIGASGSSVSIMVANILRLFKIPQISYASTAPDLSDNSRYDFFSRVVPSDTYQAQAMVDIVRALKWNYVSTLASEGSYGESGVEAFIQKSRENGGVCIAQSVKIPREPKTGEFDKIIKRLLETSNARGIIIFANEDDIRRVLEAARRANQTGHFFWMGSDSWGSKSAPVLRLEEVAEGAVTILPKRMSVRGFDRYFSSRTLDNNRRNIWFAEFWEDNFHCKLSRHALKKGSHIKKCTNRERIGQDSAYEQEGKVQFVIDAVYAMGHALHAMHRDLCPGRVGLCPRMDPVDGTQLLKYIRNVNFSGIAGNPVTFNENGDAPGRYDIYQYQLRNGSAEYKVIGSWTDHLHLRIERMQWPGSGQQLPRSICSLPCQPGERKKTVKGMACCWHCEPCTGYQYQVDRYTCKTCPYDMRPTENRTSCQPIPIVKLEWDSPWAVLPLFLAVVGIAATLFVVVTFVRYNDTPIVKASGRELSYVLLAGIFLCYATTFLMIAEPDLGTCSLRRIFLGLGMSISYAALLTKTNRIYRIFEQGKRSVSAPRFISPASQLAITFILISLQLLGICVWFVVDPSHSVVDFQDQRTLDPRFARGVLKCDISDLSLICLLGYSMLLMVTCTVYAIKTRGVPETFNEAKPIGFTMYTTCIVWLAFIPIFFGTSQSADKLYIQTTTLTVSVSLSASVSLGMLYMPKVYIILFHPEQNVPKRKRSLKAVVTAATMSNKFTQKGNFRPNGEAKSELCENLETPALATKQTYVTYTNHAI
- Assay Overview: Positive allosteric modulator activity at rat mGlu4 receptor expressed in HEK293 cells assessed as effect on L-AP4-induced inositol phosphate accumulation incubated for 30 mins by florescence assay
Known EC50 of a selection of compounds
Property Measured: EC50 (µM)

• COc1cc(NC(=O)c2ccccn2)ccc1C#Cc1ccccc1Cl = 4.1
• COc1cc(NC(=O)c2ccccn2)ccc1NC(=O)c1ccccc1Cl = 0.104
